Target: LcrF (VirF) (Yersinia pestis, UniProt P28808)
Sequence (P28808 whole entry, looked up): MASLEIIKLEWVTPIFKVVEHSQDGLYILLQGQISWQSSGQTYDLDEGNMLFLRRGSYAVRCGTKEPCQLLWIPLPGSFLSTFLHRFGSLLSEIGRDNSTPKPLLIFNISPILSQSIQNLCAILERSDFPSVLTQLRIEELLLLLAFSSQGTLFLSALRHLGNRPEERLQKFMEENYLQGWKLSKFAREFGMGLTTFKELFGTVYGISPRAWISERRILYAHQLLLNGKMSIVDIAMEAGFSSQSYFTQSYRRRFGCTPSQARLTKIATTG
Assay: biochemical
Format: binding, Y. pseudotuberculosis
Conditions: EC50 for inhibition of LcrF(VirF)-DNA binding

molecule: O=C(/C=C/c1ccc(F)cc1F)Nc1ccc(-c2nc3ccc([N+](=O)[O-])cc3n2O)cc1 [V]
EC50: < 10 µM
//
molecule: O=C(Nc1ccc(-c2nc3ccc([N+](=O)[O-])cc3n2O)nc1)c1ccc(F)cc1 [DQ]
EC50: > 25 µM
//
molecule: CCOP(=O)(COn1c(-c2ccc(NC(=O)/C=C/c3ccc(F)cc3)cc2)nc2ccc([N+](=O)[O-])cc21)OCC [ED]
EC50: > 25 µM
//
molecule: O=C(Nc1ccc(-c2nc3ccc([N+](=O)[O-])cc3n2O)cc1)C1=Cc2ccccc2OC1 [EY]
EC50: 10 to 25 µM
//
molecule: Cc1cc(C(=O)Nc2ccc(-c3nc4ccc([N+](=O)[O-])cc4n3O)cc2)ccc1F [DD]
EC50: 10 to 25 µM
//
molecule: CC(=O)c1ccc(C(=O)Nc2ccc(-c3nc4ccc([N+](=O)O)cc4n3O)cc2)cc1 [F]
EC50: 10 to 25 µM
//
molecule: COc1cc(NC(=O)/C=C/c2ccc(F)cc2)ccc1-c1nc2ccc([N+](=O)[O-])cc2n1O [ET]
EC50: 10 to 25 µM
//
molecule: O=C(Nc1ccc(-c2nc3ccc([N+](=O)[O-])cc3n2O)cc1)c1ccccc1F [Q]
EC50: > 25 µM
//
molecule: O=C(Nc1ccc(-c2nc3ccc([N+](=O)[O-])cc3n2O)cc1)c1ccc(-n2cncn2)cc1 [K]
EC50: 10 to 25 µM
//
molecule: O=C(Nc1ccc(-c2nc3ccc([N+](=O)[O-])cc3n2O)cc1)c1ccc(-n2ccnc2)cc1 [I]
EC50: < 10 µM
//
molecule: CC(=O)c1ccc(C(=O)Nc2ccc(-c3nc4ccc(C#N)cc4n3O)cc2)cc1 [AA]
EC50: > 25 µM
//
molecule: COc1ccc(/C=C/C(=O)Nc2ccc(-c3nc4ccc([N+](=O)[O-])cc4n3O)cc2)c(OC)c1 [AK]
EC50: > 25 µM
//
molecule: CC(=O)c1ccc(C(=O)Nc2ccc(-c3nc4ccc([N+](=O)[O-])cc4n3O)nc2)cc1 [DR]
EC50: > 25 µM
//
molecule: O=C(Nc1ccc(-c2nc3ccc([N+](=O)[O-])cc3n2O)cc1)c1ccc(-c2cncnc2)cc1 [DC]
EC50: > 25 µM
//
molecule: O=C(Nc1ccc(-c2nc3ccc([N+](=O)[O-])cc3n2O)cn1)c1ccc(F)cc1 [DU]
EC50: 10 to 25 µM
//
molecule: O=C(/C=C/c1ccc(F)cc1)Nc1ccc(-c2nc3ccc(-n4cccn4)cc3n2O)cc1 [FX]
EC50: > 25 µM
//
molecule: CC(=O)c1ccc(/C=C/C(=O)Nc2ccc(-c3nc4ccc([N+](=O)[O-])cc4n3O)cc2)cc1 [AJ]
EC50: 10 to 25 µM
